# System: HCT-116 cells
# protocolSummary: Test for inhibiting sphere-forming ability of cancer cells
# Format: cell-based
# setupConditions: Homo sapiens, 96 h; HCT-116 spheres, non-adherent, serum-free, 4 days, CellTiter-Glo; read-out: IC50 (Sphere IC50 value; concentration for 50% inhibition of cell proliferation)
# From the text: The reliable methods established for measuring the self-renewal ability of cells which is one of the CSC's properties include a method for measuring the sphere-forming ability of cancer cells in non-adherent condition in the absence of serum (Cancer Res 65, 5506-5511 (2005)). HCT-116 cells were available from the American Type Culture Collection (ATCC). […]
readoutType: IC50 (nM)

1. O=C(Nc1cn(Cc2cccc(C(F)(F)F)c2)cn1)c1cc2c(s1)CCNC2
5850
2. O=C(Nc1cn(Cc2ccc(Cl)c(F)c2)cn1)c1cnc2c(c1)CCNC2
60
3. COc1cc(Cn2cnc(NC(=O)c3ccc4c(c3)CCNC4)c2)cc(OC)c1
6990
4. O=C(Nc1cn(Cc2ccc(Cl)c(Cl)c2)cn1)c1ccc2c(c1)CCNC2
60

P: O=C(Nc1cn(Cc2cc(F)cc(Cl)c2)cn1)c1ccc2c(c1)CCNC2
Q: O=C1CCc2cc(C(=O)Nc3cn(Cc4cccc(C(F)(F)F)c4)cn3)ccc2C1
Q: For this pair, P and Q , which shows a numerically higher IC50? Let me know the label of the one you choose.
Result: Q

P: O=C(Nc1cn(Cc2ccc(F)c(F)c2)cn1)c1cnc2c(c1)CCNC2
Q: O=C(Nc1cn(Cc2cccc(C(F)(F)F)c2)cn1)c1ccc2c(c1)CCC(O)C2 (stereo not drawn)
Q: // returns P or Q , whichever has the lower IC50 Let me know the label of the one you choose.
Result: P

---

# Tested on: HCT-116 cells
# protocolSummary: Anti-tumor effect to HCT-116 tumor-bearing mouse
# Format: in vivo
# setupConditions: dosage 100 mg/kg, oral, administration period 17 days, nude mouse
Listing: T/C of selected molecules
Just the number in %, nothing appended.

Some solved cases for reference:
1) O=C(Nc1cn(Cc2cccc(C(F)(F)F)c2)cn1)c1ccc2c(n1)CCNC2 [Example 10]
49
2) O=C(Nc1cn(Cc2cc(F)c(F)c(F)c2)cn1)c1cnc2c(c1)CCNC2 [Example 12]
73
3) O=C(Nc1cn(Cc2cc(F)c(F)c(F)c2)cn1)c1cc(F)c2c(c1)CCNC2 [Example 5]
42

Q: So what's the measured T/C for this one? O=C(Nc1cn(Cc2cc(F)c(F)c(F)c2)cn1)c1ccc2c(n1)CCNC2 [Example 11]
Result: 46

Q: Note, next up: O=C(Nc1cn(Cc2cccc(C(F)(F)F)c2)cn1)c1cnc2c(c1)CCNC2 [Example 13]
Result: 59

---

# Test system: HCT-116 cells
# protocolSummary: Test for inhibiting sphere-forming ability of cancer cells
# Format: cell-based
# setupConditions: Homo sapiens, 96 h; HCT-116 spheres, non-adherent, serum-free, 4 days, CellTiter-Glo; read-out: IC50 (Sphere IC50 value; concentration for 50% inhibition of cell proliferation)
readoutType: IC50 (nM)

Some solved cases for reference:
1. O=C(Nc1cn(Cc2cccc(C(F)(F)F)c2)cn1)c1ccc2c(c1)CCOC2
4940
2. O=C(Nc1cn(Cc2cc(Br)cc(Br)c2)cn1)c1ccc2c(c1)CCNC2
60
3. O=C(Nc1cc2c(cc1F)CNCC2)c1cn(Cc2cc(F)c(F)c(F)c2)cn1
80

A: O=C(/C=C/c1ccc2c(c1)OC(F)(F)O2)Nc1cn(Cc2cccc(Cl)c2)cn1
B: CN(C)c1cccc(Cn2cnc(NC(=O)c3ccc4c(c3)CCNC4)c2)c1
C: O=C(Nc1cn(Cc2cc(F)c(F)c(F)c2)cn1)c1ccc2c(c1F)CCNC2
Q: // ascending sort on recorded IC50 Put the labels in the order asked and list them.
Result: A, C, B

---

# Test system: HCT-116 cells
# protocolSummary: Test for inhibiting sphere-forming ability of cancer cells (in the presence of BSA)
# Type: cell-based
# setupConditions: Homo sapiens, HCT-116, 96 h, HCT-116 spheres, non-adherent, 5% BSA, 4 days, CellTiter-Glo; read-out: IC50 (Sphere IC50 value; concentration for 50% inhibition of cell proliferation)
readoutType: IC50 (nM)

Some solved cases for reference:
1. O=C(Nc1cn(Cc2cccc(Cl)c2)cn1)c1cnc2c(c1)CCNC2
540
2. O=C(Nc1cn(Cc2ccc(Cl)cc2)cn1)c1cnc2c(c1)CCNC2
380

a: O=C(/C=C/c1ccc2c(c1)OCCO2)Nc1cn(Cc2cccc(Cl)c2)cn1
b: O=C(Nc1cn(Cc2cccc(C(F)(F)F)c2)cn1)c1ccc2c(c1F)CCNC2
c: O=C(Nc1cn(Cc2cccc(C(F)(F)F)c2)cn1)c1cnc2c(c1)CCNC2
Q: Sort by IC50, descending. Put the labels in the order asked and list them.
Result: a, b, c
(a: 790 nM, b: 550 nM, c: 60 nM)

I: O=C(Nc1cn(Cc2cc(F)c(F)c(F)c2)cn1)c1cc2c(cn1)CNCC2
II: O=C(Nc1cn(Cc2cc(F)cc(Cl)c2)cn1)c1cnc2c(c1)CCNC2
III: O=C(Nc1cn(Cc2ccc(Cl)c(C(F)(F)F)c2)cn1)c1cnc2c(c1)CCNC2
Q: Sort by IC50, descending. Put the labels in the order asked and list them.
Result: I, II, III

P: Cc1nc(NC(=O)c2ccc3c(c2)CCNC3)cn1Cc1cccc(C(F)(F)F)c1
Q: O=C(Nc1cn(Cc2ccc(F)c(F)c2)cn1)c1cnc2c(c1)CCNC2
Q: // returns P or Q , whichever has the lower IC50 Let me know the label of the one you choose.
Result: Q
(Q: 60 nM, P: 580 nM)

a: O=C(Nc1cn(Cc2ccc(C(F)(F)F)o2)cn1)c1ccc2c(c1)CCNC2
b: O=C(Nc1cc2c(cn1)CNCC2)c1cn(Cc2ccc(F)c(F)c2)cn1
Q: For this pair, a and b , which shows a numerically higher IC50? Let me know the label of the one you choose.
Result: a

---

# System: HCT-116 cells
# protocolSummary: Test for inhibiting sphere-forming ability of cancer cells
# Format: cell-based
# setupConditions: HCT-116 spheres, non-adherent, serum-free, 4 days, CellTiter-Glo; read-out: IC50 (Sphere IC50 value; concentration for 50% inhibition of cell proliferation)
readoutType: IC50 (nM)

1) O=C(Nc1cn(Cc2ccccc2)cn1)c1ccc2c(c1)CCNC2
920
2) Cc1ccccc1Cn1cnc(NC(=O)c2ccc3c(c2)CCNC3)c1
680
3) O=C(Nc1cn(Cc2ccc3ccccc3c2)cn1)c1cnc2c(c1)CCNC2
700
4) Cc1ccc(Cn2cnc(NC(=O)c3ccc4c(c3)CCNC4)c2)cc1
950
5) O=C(Nc1cn(CCCc2ccccc2)cn1)c1cnc2c(c1)CCNC2
760
6) O=C(Nc1cn(Cc2ccc3c(c2)OCO3)cn1)c1cnc2c(c1)CCNC2
730
7) O=C(Nc1cn(Cc2ccccc2C(F)(F)F)cn1)c1cnc2c(c1)CCNC2
710
8) O=C(Nc1cn(Cc2ccccc2F)cn1)c1cnc2c(c1)CCNC2
750
9) O=C(Nc1cn(Cc2ccc(C(F)(F)F)cc2)cn1)c1ccc2c(c1)CCNC2
720
